meta.source: ChEMBL document CHEMBL4270533

Reported values of HC50 at 1 h for individual entries
# Test Protocol: Hemolytic activity in human RBC after 1 hr
# Assay type: ADME, cell-based, Erythrocyte
# Applied Conditions: red blood cells (erythrocytes)
Hi! Could you send only the number? It should be in µg/mL, unit omitted.

GET /value?item= CCCCCCCCCCCCCCCC(=O)N[C@@H](CCCCN)C(=O)NCCN(C(=O)CCc1ccccc1)[C@@H](CCCCN)C(=O)NCCN(C(=O)CCc1ccccc1)[C@@H](CCCCN)C(=O)NCCN(C(=O)CCc1ccccc1)[C@@H](CCCCN)C(N)=O &field=HC50 at 1 h returns 250

Measured HC50 at 1 h of CCCCCCCCCCCCCCCC(=O)N[C@@H](CCCCN)C(=O)NCCN(C(=O)CCc1ccccc1)[C@@H](CCCCN)C(=O)NCCN(C(=O)CCc1ccccc1)[C@@H](CCCCN)C(N)=O : 31.2

The compound identified as CCCCCCCCCCCCCCCC(=O)N[C@@H](CCCCN)C(=O)NCCN(C(=O)CCc1ccccc1)[C@@H](CCCCN)C(N)=O registered its HC50 at 1 h at 31.2

Field HC50 at 1 h (entry CCCCCCCCCCCCCCCC(=O)N[C@@H](CCCCN)C(=O)NCCN(C(=O)CCCN)[C@@H](Cc1ccccc1)C(N)=O ) reads 125
